log10 koff values, listed per item
target: T1, His-tagged cynomolgus monkey TIGIT (cynomolgus monkey, UniProt A0A7N9I9V4 89-209); test: SPR Biacore, antibody captured on anti-human Fc, His-tagged TIGIT injected
T1 construct: also called Cyno TIGIT; cynomolgus monkey TIGIT (Novoprotein cat. No. CP02)
T1 sequence (A0A7N9I9V4 entry or part of it): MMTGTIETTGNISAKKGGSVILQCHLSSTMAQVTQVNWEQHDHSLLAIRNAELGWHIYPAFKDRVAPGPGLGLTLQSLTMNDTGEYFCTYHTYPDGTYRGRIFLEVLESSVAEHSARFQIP
Recorded koff (log10, s⁻¹)

3964A06 (antibody, human IgG1, V domains shown) VH: EVQLVQSGSELKKPGASVKVSCKASGYTFTAYPMNWVRQAPGQGLEWMGWINTNTGNPTYAQGFTGRFVFSLDTSVSTAYLQISSLKAEDTAVYYCARVGGYSVYDYAFDIWGQGTMVTVSS VL: DIQLTQSPSFLSASVGDRVTITCRASQGISSYLAWYQQKPGKAPKLLIYAASTLQSGVPSRFSGSGSGTEFTLTISSLQPEDFATYYCQQLNSYPTFGGGTKVEIK; -3.91
3966C11 (antibody, human IgG1, V domains shown, constant regions correspond to those of H03-12 (human IgG1, kappa)) VH: EIQLVQSGSELKKPGASVKVSCKASGYTFTSYPMNWVRQAPGQGLEWMGWINTNTGNPTNAQGFTGRFVFSLDTSVSTAYLQISSLKAEDTAVYYCARVGGYGGYDYAFDIWGQGTMVTVSS VL: DIQLTQSPSFLSASVGDRVTITCRASQGISSYLAWYQQKPGKAPKLLIYAASTLQSGVPSRFSGSGSGTEFTLTISSLQPEDFATYYCQQLNSYPTFGGGTKLEIK; -3.78
3965D08 (antibody, human IgG1, V domains shown, constant regions correspond to those of H03-12 (human IgG1, kappa)) VH: EVQLVQSGSELKKPGASVKVSCKASGYTFTSYPMNWVRQAPGQGLEWMGWINTNTGNPTYAQGFTGRFVFSLDTSVSTAYLQISSLKAEDTAVYYCARTGYSGSYYWFDPWGQGTLVTVSS VL: DIRLTQSPSFLSASVGDRVTITCRASQGISSYLAWYQQKPGKAPKFLIYAASTLQSGVPSRFSGSGSGTEFTLTISSLQPEDFATYYCQQLNSYLTFGQGTRLEIK; -2.25
7728B03 (antibody, V domains shown, constant regions correspond to those of H03-12) VH: QMQLVQSGSELKKPGASVKVSCKASGYTFTSYPMNWVRQAPGQGLEWMGWINTNTGNPTYAQGFTGRFVFSLDTSVSTAYLQISSLKAEDTAVYYCARTGGYSVDEYSFDIWGQGTTVTVSS VL: DIQLTQSPSFLSASVGDRVTITCRASQGISSYLAWYQQKPGKAPKLLIYAASTLQSGVPSRFSGSGSGTEFTLTISSLQPEDFATYYCHQTIFRPTFGGGTKVEIK; -4.80
3963H03-12 (antibody, human IgG1, kappa, V domains shown, also called anti-TIGIT H03-12; 39631H03-12) VH: QVQLVQSGSELKKPGASVKVSCKASGYTFTSYPMNWVRQAPGQGLEWMGWINTNTGNPTYAQGFTGRFVFSLDTSVSTAYLQISSLKAEDTAVYYCARVGGYSVDEYAFDVWGQGTLVTVSS VL: DIQLTQSPSFLSASVGDRVTITCRASQGISSYLAWYQQKPGKAPKLLIYAASTLQSGVPSRFSGSGSGTEFTLTISSLQPEDFATYYCQQLSSYPTFGGGTKVEIKR; -3.88
7729G05 (antibody, V domains shown, constant regions correspond to those of H03-12) VH: QVQLVQSGSELKKPGASVKVSCKASGYTFTSYPMNWVRQAPGQGLEWMGWINTNTGNPTYAQGFTGRFVFSLDTSVSTAYLQISSLKAEDTAVYYCARVGGFTVPEYAFDIWGQGTTVTVSS VL: DIRLTQSPSFLSASVGDRVTITCRASQGISSYLAWYQQKPGKAPKLLIYAASTLQSGVPSRFSGSGSGTEFTLTISSLQPEDFATYYCGQVMRYPAFGGGTKVEIK; -4.91

Let us move to another entry and its log10 koff.
## Task Given the entry 3963H03 (antibody, human IgG1, kappa, V domains shown, fully human IgG1 kappa, B-cell cloning hit from OmniRat; also called 3963H03 VH; 3963H03 VK) VH: EIQLVQSGSELKKPGASVKVSCKASGYTFTSYPMNWVRQAPGQGLEWMGWINTNTGNPTYAQGFTGRFVFSLDTSVSTAYLQISSLKAEDTAVYYCARVGGYSVDEYAFDVWGQGTMVTVSS VL: AIRLTQSPSFLSASVGDRVTITCRASQGISSYLAWYQQKPGKAPKLLIYAASTLQSGVPSRFSGSGSGTEFTLTISSLQPEDFATYYCQQLNSYPTFGGGTKVEIKR , report its measured log10 koff.
## Result -3.67

These measurements were taken from patent US20220403022A1.
